I'd appreciate it if you could supply pIC50 values for the items below.
# Test system: human colon cancer cells HT-29
# TEST SUMMARY: MTT toxicity in colon cancer and normal colon cells (Part 5)
# Format: cell-based
# TEST CONDITIONS: HT-29 (p53 mutant), 24 hours
Schema: pIC50 number; meaning minus log10 of the concentration expressed in molar units.

Bench note: what pIC50 did CCCCCCCCC/C=C/C(=O)CCc1ccc(O)c(OC)c1 [10S, [10]-shogaol, reference compound] show?
4.62

Bench note: what pIC50 did CCCCCCCC(CC(=O)CCc1ccc(O)c(OC)c1)SC[C@H](N)C(=O)O (stereo partly shown) [M2′, 5-cysteinyl-[8]-shogaol] show?
4.51

Bench note: what pIC50 did CCCCCCC/C=C/C(=O)CCc1ccc(O)c(OC)c1 [8S, [8]-shogaol, reference compound] show?
4.55

Bench note: what pIC50 did CCCCCCCCCC(CC(=O)CCc1ccc(O)c(OC)c1)SC[C@H](N)C(=O)O (stereo partly shown) [M2″, 5-cysteinyl-[10]-shogaol] show?
4.54

###

# TEST SUMMARY: Kinetic study of [6]-shogaol metabolism to M6 in liver microsomes
# Assay type: in vitro ADME, monkey
# TEST CONDITIONS: monkey liver microsomes 0.1 mg/mL, 30 min; read-out: Km of M6 formation
PROPERTY LABEL: Km (µM)
Note: unit µM is implicit; provide only the numeric part.

Bench note: what Km did CCCCC/C=C/C(=O)CCc1ccc(O)c(OC)c1 [[6]-shogaol, reference compound] show?
424

###

# Tested on: human lung fibroblast cells IMR-90
# TEST SUMMARY: in vitro
# Assay type: cell-based
PROPERTY LABEL: IC50 (µM)
Note: unit µM is implicit; provide only the numeric part.

Bench note: what IC50 did CCCCC/C=C/C(=O)CCc1ccc(O)c(OC)c1 [[6]-shogaol, reference compound] show?
36.6

Bench note: what IC50 did CCCCCC(CC(=O)CCc1ccc(O)c(OC)c1)SC[C@H](N)C(=O)O (stereo partly shown) [M2, 5-cysteinyl-[6]-shogaol] show?
98.3

Bench note: what IC50 did CCCCCC(CC(=O)CCc1ccc(O)c(OC)c1)SC[C@H](NC(=O)CC[C@H](N)C(=O)O)C(=O)NCC(=O)O (stereo partly shown) [M13, 5-glutathiol-[6]-shogaol] show?
57.5

###

I'd appreciate it if you could supply IC50 values for the items below.
# Tested on: human colon fibroblast cells CCD-18Co
# TEST SUMMARY: MTT toxicity in colon cancer and normal colon cells (Part 5)
# Assay type: cell-based
# TEST CONDITIONS: normal colon cells CCD-18Co, 24 hours
Note: unit µM is implicit; provide only the numeric part.

Bench note: what IC50 did CCCCCCC/C=C/C(=O)CCc1ccc(O)c(OC)c1 [8S, [8]-shogaol, reference compound] show?
105

Bench note: what IC50 did CCCCCCCCC/C=C/C(=O)CCc1ccc(O)c(OC)c1 [10S, [10]-shogaol, reference compound] show?
136

###

# TEST SUMMARY: in vitro
# Format: cell-based, human
# TEST CONDITIONS: human
PROPERTY LABEL: IC50 at 48 h

Bench note: what IC50 at 48 h did CCCCCC=CC(O)CCc1ccc(O)c(OC)c1 (stereo not shown) show?
> 100 µM

###

# System: H-1299 human lung cancer cells
# TEST SUMMARY: MTT growth inhibition of human cancer cells, 24 h (Part 1)
# Type: cell-based
# TEST CONDITIONS: H-1299, 24 h, 0 to 80 μM
PROPERTY LABEL: pIC50
Schema: pIC50 number; meaning minus log10 of the concentration expressed in molar units.

Bench note: what pIC50 did CCCCC/C=C/C(=O)CCc1ccc(O)c(OC)c1 [[6]-shogaol, reference compound] show?
4.77

###

# TEST SUMMARY: Kinetic study of [6]-shogaol metabolism to M6 in liver microsomes
# TEST CONDITIONS: read-out: Km of M6 formation; human liver microsomes 0.1 mg/mL, 30 min, [6]-shogaol 7.8 to 2000 μM
# Procedure: To estimate kinetic parameters of metabolism of [6]-shogoal to major product M6 in liver microsomes from human and other species, the incubation conditions were optimized to ensure that formation rate of M6 was in the linear range in relation to incubation time and protein concentration. […] The apparent Km and Vmax values were calculated from analysis of experimental data according to the Michaelis-Menten equation, and the results were graphically represented (for HLM) by an Eadie-Hofstee plot. […]
PROPERTY LABEL: Km (µM)
Note: unit µM is implicit; provide only the numeric part.

Bench note: what Km did CCCCC/C=C/C(=O)CCc1ccc(O)c(OC)c1 [[6]-shogaol, reference compound] show?
45.6

###

# System: human lung cancer cells H-1299
# TEST SUMMARY: MTT growth inhibition by M14 and M15 (Part 3)
# Format: cell-based
# TEST CONDITIONS: Homo sapiens, NCI-H1299; H-1299, 24 hours, 0 to 80 μM; read-out: IC50 (cell viability, MTT)
I'd appreciate it if you could supply pIC50 values for the items below.
Schema: pIC50 number; meaning minus log10 of the concentration expressed in molar units.

Bench note: what pIC50 did CCCCCCCC(=O)/C=C/c1ccc(O)c(OC)c1 show?
4.38

Bench note: what pIC50 did CCCCC/C=C/C(=O)/C=C/c1ccc(O)c(OC)c1 show?
5.52

###

# Tested on: HCT-116 human colon cancer cells
# TEST SUMMARY: MTT growth inhibition of human cancer cells, 24 h (Part 1)
# Assay type: cell-based
# TEST CONDITIONS: HCT-116, 24 h, 0 to 80 μM
# Method: The reading reflected the number of viable cells and was expressed as a percentage of viable cells in the control. Both HCT-116 and H-1299 cells were cultured in McCoy's 5A medium. All of the above media were supplemented with 10% fetal bovine serum, 1% penicillin/streptomycin, and 1% glutamine, and the cells were kept in a 37° C. incubator with 95% humidity and 5% CO2.
PROPERTY LABEL: pIC50
Schema: pIC50 number; meaning minus log10 of the concentration expressed in molar units.

Bench note: what pIC50 did CCCCC/C=C/C(=O)CCc1ccc(O)c(OC)c1 [[6]-shogaol, reference compound] show?
4.73

###

# System: H-1299 human lung cancer cells
# TEST SUMMARY: MTT growth inhibition of human cancer cells, 24 h (Part 1)
# Assay type: cell-based
# TEST CONDITIONS: Homo sapiens, NCI-H1299; H-1299, 24 h, 0 to 80 μM
PROPERTY LABEL: pIC50
Schema: pIC50 number; meaning minus log10 of the concentration expressed in molar units.

Bench note: what pIC50 did CCCCCCCC(O)CCc1ccc(O)c(OC)c1 (centres unmarked) show?
4.11

Bench note: what pIC50 did CCCCCCCC(=O)CCc1ccc(O)c(OC)c1 show?
4.18

###

# TEST SUMMARY: Kinetic study of [6]-shogaol metabolism to M6 in liver microsomes
# Type: in vitro ADME, mouse
# TEST CONDITIONS: mouse liver microsomes 0.1 mg/mL, 30 min; read-out: Km of M6 formation
PROPERTY LABEL: Km (µM)
Note: unit µM is implicit; provide only the numeric part.

Bench note: what Km did CCCCC/C=C/C(=O)CCc1ccc(O)c(OC)c1 [[6]-shogaol, reference compound] show?
75.7

###

I'd appreciate it if you could supply IC50 values for the items below.
# Tested on: human colon fibroblast cells CCD-18Co
# TEST SUMMARY: in vitro
# Type: cell-based
Note: unit µM is implicit; provide only the numeric part.

Entry CCCCCC(CC(=O)CCc1ccc(O)c(OC)c1)SC[C@H](N)C(=O)O (stereo partly shown) [M2, 5-cysteinyl-[6]-shogaol] , system human colon fibroblast cells CCD-18Co: what IC50 was measured?
99.2

Entry CCCCC/C=C/C(=O)CCc1ccc(O)c(OC)c1 [[6]-shogaol, reference compound] , system human colon fibroblast cells CCD-18Co: what IC50 was measured?
43.9

Entry CCCCCC(CC(=O)CCc1ccc(O)c(OC)c1)SC[C@H](NC(=O)CC[C@H](N)C(=O)O)C(=O)NCC(=O)O (stereo partly shown) [M13, 5-glutathiol-[6]-shogaol] , system human colon fibroblast cells CCD-18Co: what IC50 was measured?
75.5

###

# Test system: human lung cancer cells H-1299
# TEST SUMMARY: MTT growth inhibition of human cancer and normal cells (Part 2)
# Type: cell-based
# TEST CONDITIONS: Homo sapiens, NCI-H1299; H-1299, 48 h, 0 to 80 μM
I'd appreciate it if you could supply IC50 values for the items below.
Note: unit µM is implicit; provide only the numeric part.

Bench note: what IC50 did CCCCCC=CC(O)CCc1ccc(O)c(OC)c1 (centres unmarked) [M6] show?
61.3

Bench note: what IC50 did CCCCCC(CC(=O)CCc1ccc(O)c(OC)c1)SC (centres unmarked) [M10] show?
60.6

Bench note: what IC50 did CCCCCCCC(=O)CCc1ccc(O)c(OC)c1 [M11] show?
66.5

Bench note: what IC50 did CCCCCC(CC(O)CCc1ccc(O)c(OC)c1)SC (centres unmarked) [M12] show?
69.9

Bench note: what IC50 did CCCCCCCC(O)CCc1ccc(O)c(OC)c1 (centres unmarked) [M9] show?
82.5

Where do the numbers come from? From patent US9549911B2.
